tested on: FLT3(D835V); conditions: Compound Concentration (nM):1000;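 also: KINOMEscan scanMAX binding as percent activity remaining versus control; lower means stronger binding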
Assignment: determine reported Percent Control for the given compounds.
Give bare numbers, in %.

Please review the entries below; each comes with its answer.
Short answer for NS(=O)(=O)c1ccc(N/N=C2\C(=O)Nc3ccc(C(=O)NCc4ccncc4)cc32)cc1 [GW300657X] : Percent Control was 0

// Percent Control value for COc1ccc2c(-c3ccnc(Nc4cccc(OC(F)(F)F)c4)n3)cnn2n1 [GW810372X] : 46

Sample CC1=C(C(=O)Nc2ccc3[nH]ncc3c2)C(c2ccc(Cl)c(Cl)c2)CC(=O)N1 (stereo not shown) [GSK299115A] ; Percent Control observed: 75

Turning now to a further record.
The compound listed as Cl.O=S1CCN(Cc2ccc(-c3ccc4ncnc(Nc5ccc(OCc6ccccc6)c(F)c5)c4c3)o2)CC1 [GW576924A] has a reported Percent Control of 99

* * *

system: FLT3(ITD,F691L); settings: Compound Concentration (nM):1000
Field: Percent Control. Provide a value for each of the compounds that follow.
Give bare numbers, in %.

Consider the worked cases shown below.
Measured on FLT3(ITD,F691L), C/C(Nc1ccc(S(N)(=O)=O)cc1)=C1/C(=O)Nc2ccccc21 [GW335962X] has a documented Percent Control of 3

Measured on FLT3(ITD,F691L), CN(C)c1cc2c(Nc3ccc4c(cnn4Cc4ccccc4)c3)ncnc2cn1 [GW282974X] has a documented Percent Control of 100

Percent Control of CCS(=O)(=O)c1ccc(OC)c(Nc2ncc(-c3cccc(F)c3)o2)c1 [GW621970X] , assay on FLT3(ITD,F691L), is 25

Provide the reported Percent Control of each entry below, same order.
1. COc1ccc2[nH]c3c4[nH]c5ccc(OC)cc5c4c4c(c3c2c1)C(=O)NC4=O [GW296115X]
2. COC(=O)Nc1nc2ccc(Oc3ccc(NC(=O)Nc4cc(C(F)(F)F)ccc4F)cc3)cc2s1.Cl [GW693917A]
3. Cl.O=S1CCN(Cc2ccc(-c3ccc4ncnc(Nc5ccc(OCc6ccccc6)c(F)c5)c4c3)o2)CC1 [GW576924A]
4. COc1cc(/C=N/Nc2ncnc3[nH]ncc23)ccc1O [GW578748X]

1. 3.6
2. 44
3. 100
4. 11

For each of the compounds below, state Percent Control.
1. COc1cc(N2CCN(C(C)C)CC2)ccc1Nc1nc(Nc2ccc(F)cc2C(=O)NC[C@@H](O)CO)c2cc[nH]c2n1 [GSK1392956A]
2. O=C1Nc2ccc(C(=O)c3ccco3)cc2C1=Cc1cc(Cl)c(O)c(Cl)c1 [GW406108X]
3. NS(=O)(=O)c1ccc(Nc2ncc(-c3ccccc3)o2)cc1 [GW572399X]
4. COc1cc(C=NNc2ncnc3c2cnn3-c2ccccc2)ccc1O [GW513184X]
5. CCn1c(-c2nonc2N)nc2c(C#CC(C)(C)O)nc(OCCNC)cc21.Cl
6. COc1cccc(-n2ncc3c(N/N=C/c4ccncc4)ncnc32)c1 [GW784752X]
7. COc1cccc(-c2c[nH]c3c(N/N=C/c4ccncc4)ncnc23)c1 [GW814408X]

40
29
42
46
22
55
43

Each compound below has a reported value. Please supply its Percent Control.
1. CN1CCN(C(=O)c2ccc(NC(=O)Nc3ccc(N(C)c4ccnc(Nc5ccc(CS(C)(=O)=O)cc5)n4)cc3)cc2)CC1.Cl [GW830263A]
2. CN(C)CCNC(=O)Nc1ccc(N(C)c2ccnc(Nc3ccc(CS(C)(=O)=O)cc3)n2)cc1.Cl [GW830900A]
3. CC(C)COC(=O)c1ccc2c(c1)/C(=C/Nc1ccc(S(N)(=O)=O)cc1)C(=O)N2 [GW416981X]

6.8
19
0

* * *

tested on: MYLK2; conditions: Compound Concentration (nM):1000
outcomeMeasure: Percent Control (%)
Give bare numbers, in %.

Solved cases below.
Percent Control for CC(C)COC(=O)c1ccc2c(c1)/C(=C/Nc1ccc(S(N)(=O)=O)cc1)C(=O)N2 [GW416981X] is 100

Sure, the documented Percent Control for COc1cc(/C=N/Nc2ncnc3[nH]ncc23)ccc1O [GW578748X] is 81

# Percent Control of Cl.O=C(Nc1ccc(Oc2ccc3[nH]c(NC(=O)c4ccccc4)nc3c2)cc1)Nc1cc(C(F)(F)F)ccc1F [GW709042A] = 91

Entry COc1cc2ncn(-c3cc(O[C@H](C)c4ccccc4Cl)c(C(N)=O)s3)c2cc1OC [GSK237701A] ; Percent Control = 45

The molecule identified as COc1cc(C)c(N(C)C(=O)CN(C)C)cc1Nc1nc(Nc2cccc(F)c2C(N)=O)c2cc[nH]c2n1 registered its Percent Control at 100

Item: COc1cc(N2CCN(C(C)C)CC2)ccc1Nc1nc(Nc2ccc(F)cc2C(=O)NC[C@@H](O)CO)c2cc[nH]c2n1 [GSK1392956A] | Percent Control: 100

response.value for COc1ccc2cc(-c3c(-c4ccncc4)nc(-c4ccc(S(C)(=O)=O)cc4C)n3C)ccc2c1 (field: Percent Control) = 100

***
Memo: COc1ccc2[nH]c3c4[nH]c5ccc(OC)cc5c4c4c(c3c2c1)C(=O)NC4=O [GW296115X] , reported Percent Control: 82

* * *

tested on: JNK2; construct: gene MAPK9; conditions: Compound Concentration (nM):1000
Param threshold (80%) applies to Percent Control; output true when value >= threshold, false when value < threshold.

Reference set (5 entries):
Textbook exercise: given the entry COc1ccccc1-c1cc(/C=C2\C(=O)Nc3ncc(Br)cc32)cc(Br)c1O [GW442130X] , state whether its Percent Control is greater than or equal to 80%. false

Answer whether Percent Control of NS(=O)(=O)c1ccc(N/N=C2\C(=O)Nc3ccc(C(=O)NCc4ccncc4)cc32)cc1 [GW300657X] is greater than or equal to 80%. false

Is Percent Control for COc1ccc(COc2ccc(Cc3cnc(N)nc3N)cc2OC)cc1 [GW632580X] at or above 80%? true

State whether the measured Percent Control reaches 80%, counting equality as reaching it, for NS(=O)(=O)c1ccc(N/N=C2\C(=O)Nc3ccc(Cl)cc32)cc1 [GW280670X] true

Hello, I need to know if COc1ccc2c(-c3ccnc(Nc4cccc(OC(F)(F)F)c4)n3)cnn2n1 [GW810372X] has measured Percent Control not below 80%. Thanks! false

More entries:
Entry NS(=O)(=O)c1ccc(N/N=C2\C(=O)Nc3ccc(-c4cnco4)cc32)cc1 : is its Percent Control no less than 80%? true

Confirm if Percent Control reported for the compound CN(C)c1cc2c(Nc3ccc4c(cnn4Cc4ccccc4)c3)ncnc2cn1 [GW282974X] is 80% or above. true

Given the entry Cc1cc(O)cc(C)c1/C=C/c1cncc(C(N)=O)c1 [GW435821X] , answer whether its Percent Control meets or surpasses 80%. true

Can COc1cc(C=NNc2ncnc3c2cnn3-c2ccccc2)ccc1O [GW513184X] be said to have Percent Control at or above 80%? true

Test whether the compound Nc1ncnc2occ(-c3ccc(NC(=O)Nc4cc(C(F)(F)F)ccc4F)cc3)c12 [GW770249X] records Percent Control of 80% or higher. false

* * *

system: SLK; conditions: Compound Concentration (nM):1000
I'd appreciate it if you could supply Percent Control values for the items below.
Give bare numbers, in %.

State recorded Percent Control for all listed compounds.
1. CCn1c(-c2nonc2N)nc2c(C#CC(C)(C)O)nc(OCCNC)cc21.Cl
2. Nc1ncnc2occ(-c3ccc(NC(=O)Nc4cc(C(F)(F)F)ccc4F)cc3)c12 [GW770249X]
3. C/C(Nc1ccc(S(N)(=O)=O)cc1)=C1/C(=O)Nc2ccccc21 [GW335962X]
4. CC1=C(C(=O)Nc2ccc3[nH]ncc3c2)C(c2ccc(Cl)c(Cl)c2)CC(=O)N1 (stereo not drawn) [GSK299115A]
5. COc1cc(/C=N/Nc2ncnc3[nH]ncc23)ccc1O [GW578748X]

100
6.3
92
98
100

Sure, the documented Percent Control for Cl.O=S1CCN(Cc2ccc(-c3ccc4ncnc(Nc5ccc(OCc6ccccc6)c(F)c5)c4c3)o2)CC1 [GW576924A] is 100

* * *

system: PIK3CG; conditions: Compound Concentration (nM):1000
outcomeMeasure: Percent Control
Don't forget the unit after the value.

Take a look at these entries with their results.
Recorded result, NS(=O)(=O)c1ccc(N/N=C2\C(=O)Nc3ccc(C(=O)NCc4ccncc4)cc32)cc1 [GW300657X] , Percent Control: 100%

For COc1cc2ncnc(Nc3ccc4c(cnn4Cc4ccccc4)c3)c2cc1OC.Cl [GW282449A] the compound record lists Percent Control as 100%

Note to self: Percent Control recorded for CC1=C(C(=O)Nc2ccc3[nH]ncc3c2)C(c2ccc3ccccc3c2)CC(=O)N1 (stereo not drawn) [GSK270822A] was 97%

Would you mind listing Percent Control for each of the following compounds?
1. COc1cccc(-c2c[nH]c3c(N/N=C/c4ccncc4)ncnc23)c1 [GW814408X]
2. O=C(Nc1n[nH]c2nc(-c3ccc(O)cc3)c(Br)cc12)C1CC1 [SB-725317]
3. COc1ccc(COc2ccc(Cc3cnc(N)nc3N)cc2OC)cc1 [GW632580X]

88%
100%
77%

Give Percent Control for each of the items listed below.
1. C/C(Nc1ccc(S(N)(=O)=O)cc1)=C1/C(=O)Nc2ccccc21 [GW335962X]
2. COc1cccc(-n2ncc3c(N/N=C/c4ccncc4)ncnc32)c1 [GW784752X]
3. Cl.O=C(Nc1ccc(Oc2ccc3[nH]c(NC(=O)c4ccco4)nc3c2)cc1)Nc1cc(C(F)(F)F)ccc1F [GW683134A]

100%
54%
100%
